Molecular target: IKZF1 (Homo sapiens (Human), UniProt Q13422+Q96SW2)
Sequence (Q13422 whole entry): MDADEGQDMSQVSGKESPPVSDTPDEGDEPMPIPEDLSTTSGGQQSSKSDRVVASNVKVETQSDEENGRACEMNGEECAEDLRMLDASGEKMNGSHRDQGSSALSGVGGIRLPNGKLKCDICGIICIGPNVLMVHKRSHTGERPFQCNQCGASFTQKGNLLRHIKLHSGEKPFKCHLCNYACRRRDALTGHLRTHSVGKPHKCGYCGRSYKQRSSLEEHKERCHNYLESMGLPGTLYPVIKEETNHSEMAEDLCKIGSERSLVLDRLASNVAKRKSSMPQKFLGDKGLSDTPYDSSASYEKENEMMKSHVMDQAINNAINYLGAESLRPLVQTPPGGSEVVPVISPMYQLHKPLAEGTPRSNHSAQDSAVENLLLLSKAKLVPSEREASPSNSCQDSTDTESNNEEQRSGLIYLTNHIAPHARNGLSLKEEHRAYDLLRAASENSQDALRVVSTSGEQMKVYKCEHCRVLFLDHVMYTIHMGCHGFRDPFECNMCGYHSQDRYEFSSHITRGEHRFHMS
Sequence (Q96SW2 whole entry): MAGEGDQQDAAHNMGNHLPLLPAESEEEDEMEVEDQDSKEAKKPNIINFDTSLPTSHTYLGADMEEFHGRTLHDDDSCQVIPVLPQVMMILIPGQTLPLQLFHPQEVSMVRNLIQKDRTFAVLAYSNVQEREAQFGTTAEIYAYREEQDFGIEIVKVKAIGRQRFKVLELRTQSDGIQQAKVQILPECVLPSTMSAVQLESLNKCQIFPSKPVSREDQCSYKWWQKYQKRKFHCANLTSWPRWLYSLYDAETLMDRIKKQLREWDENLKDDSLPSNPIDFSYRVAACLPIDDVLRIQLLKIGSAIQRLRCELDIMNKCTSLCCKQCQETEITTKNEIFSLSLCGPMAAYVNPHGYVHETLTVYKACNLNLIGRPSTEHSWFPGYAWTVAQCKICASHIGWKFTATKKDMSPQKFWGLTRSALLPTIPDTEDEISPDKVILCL
Sequence (Q16531 2-1140 partner): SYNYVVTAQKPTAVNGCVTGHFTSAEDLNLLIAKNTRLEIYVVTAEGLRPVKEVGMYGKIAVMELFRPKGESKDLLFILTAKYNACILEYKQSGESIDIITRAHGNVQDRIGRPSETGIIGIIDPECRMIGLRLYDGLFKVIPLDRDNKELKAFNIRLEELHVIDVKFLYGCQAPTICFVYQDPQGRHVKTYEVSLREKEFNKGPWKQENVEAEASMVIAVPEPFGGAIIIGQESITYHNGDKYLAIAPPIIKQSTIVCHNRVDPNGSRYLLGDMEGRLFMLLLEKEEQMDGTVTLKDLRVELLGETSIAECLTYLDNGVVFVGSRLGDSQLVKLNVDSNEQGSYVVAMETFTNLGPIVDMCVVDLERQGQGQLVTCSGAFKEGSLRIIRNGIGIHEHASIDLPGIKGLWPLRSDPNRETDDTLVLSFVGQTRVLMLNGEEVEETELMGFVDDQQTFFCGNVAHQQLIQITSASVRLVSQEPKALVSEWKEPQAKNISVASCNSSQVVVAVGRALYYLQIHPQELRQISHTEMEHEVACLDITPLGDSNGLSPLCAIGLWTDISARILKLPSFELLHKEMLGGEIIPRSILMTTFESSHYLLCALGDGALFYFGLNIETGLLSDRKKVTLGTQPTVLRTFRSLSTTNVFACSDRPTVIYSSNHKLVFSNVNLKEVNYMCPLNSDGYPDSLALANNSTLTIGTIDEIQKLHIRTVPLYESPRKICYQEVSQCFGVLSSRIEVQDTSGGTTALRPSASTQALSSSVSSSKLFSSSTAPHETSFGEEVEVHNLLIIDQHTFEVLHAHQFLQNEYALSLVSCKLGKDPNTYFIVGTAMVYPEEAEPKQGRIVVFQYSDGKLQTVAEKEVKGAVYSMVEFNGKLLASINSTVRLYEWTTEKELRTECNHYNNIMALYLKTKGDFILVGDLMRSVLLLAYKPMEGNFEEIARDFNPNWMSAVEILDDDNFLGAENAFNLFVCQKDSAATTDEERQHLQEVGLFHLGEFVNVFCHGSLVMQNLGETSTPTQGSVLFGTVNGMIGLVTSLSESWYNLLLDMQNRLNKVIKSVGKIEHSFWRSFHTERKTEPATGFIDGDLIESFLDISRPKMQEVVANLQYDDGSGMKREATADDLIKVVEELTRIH
Assay: In vitro IKZF1 HiBit Assay (HEK293T Flp-in-HiBiT-IKZF1 stable cell line)
Format: cell-based
Details: HEK293T Flp-in-HiBiT-IKZF1 stable cell line, 6 hrs incubation; read-out: IKZF1 HiBit DC50
property: DC50

compound: Cn1ccc2c(CN3CC4(COC4)C3)cc(-c3ccc4c(c3)CN(C3CCC(=O)NC3=O)C4=O)nc21 (centres unmarked)
recorded.measurement: 10 to 100 nM
//
compound: Nc1n[nH]c2c(CN3CCC4(CC3)COC4)cc(-c3ccc4c(c3)CN(C3CCC(=O)NC3=O)C4=O)nc12 (centres unmarked)
recorded.measurement: 100 to 1000 nM
//
compound: Cn1ccc2c(CN3CCCC3(C)C)cc(-c3ccc4c(c3)CN(C3CCC(=O)NC3=O)C4=O)nc21 (centres unmarked)
recorded.measurement: 10 to 100 nM
//
compound: Cn1ccc2nc(-c3ccc4c(c3)CN(C3CCC(=O)NC3=O)C4=O)cc(CN3CCC3)c21 (centres unmarked)
recorded.measurement: > 10000 nM
//
compound: Cn1ccc2c(C3CCCCN3)cc(-c3ccc4c(c3)CN([C@H]3CCC(=O)NC3=O)C4=O)nc21 (some centres unmarked)
recorded.measurement: 1 to 10 nM
//
compound: CO[C@H]1C[C@@H](Oc2ccnc3c(CN4CCCC4)cc(-c4ccc5c(c4)CN(C4CCC(=O)NC4=O)C5=O)nc23)C1 (some centres unmarked)
recorded.measurement: > 10000 nM
//
compound: O=C1CCC(N2Cc3cc(-c4cc(CN5CCCC5)c5cnn(C6CCC6)c5n4)ccc3C2=O)C(=O)N1 (centres unmarked)
recorded.measurement: > 10000 nM
//
compound: Cn1ncc2c(CN3CCCC3)cc(-c3ccc4c(c3)CN(C3CCC(=O)NC3=O)C4=O)nc21 (centres unmarked)
recorded.measurement: 10 to 100 nM
//
compound: O=C1CCC(N2Cc3cc(-c4cc(CN5CCCC5)c5c(C(F)(F)F)nn(C6COC6)c5n4)ccc3C2=O)C(=O)N1 (centres unmarked)
recorded.measurement: > 10000 nM
//
compound: COC1CCN(Cc2cc(-c3ccc4c(c3)CN(C3CCC(=O)NC3=O)C4=O)nc3c2ccn3C)C1 (centres unmarked)
recorded.measurement: 10 to 100 nM
//
compound: O=C1CCC(N2Cc3cc(-c4cc(CN5CCCC5)c5ccn(C6CCCCC6)c5n4)ccc3C2=O)C(=O)N1 (centres unmarked)
recorded.measurement: > 10000 nM
//
compound: Cn1ccc2c(CN3CCC(CO)C3)cc(-c3ccc4c(c3)CN(C3CCC(=O)NC3=O)C4=O)nc21 (centres unmarked)
recorded.measurement: 10 to 100 nM
//
compound: Cn1ccc2c(CN3CC4CCC(C4)C3)cc(-c3ccc4c(c3)CN(C3CCC(=O)NC3=O)C4=O)nc21 (centres unmarked)
recorded.measurement: 1 to 10 nM
//
compound: O=C1CCC(N2Cc3cc(-c4cc(CN5CC(CO)C5)c5ccn(C6COC6)c5n4)ccc3C2=O)C(=O)N1 (centres unmarked)
recorded.measurement: > 10000 nM
//
compound: CN(C)C(=O)CC1CCN(Cc2cc(-c3ccc4c(c3)CN(C3CCC(=O)NC3=O)C4=O)nc3[nH]ccc23)C1 (centres unmarked)
recorded.measurement: 100 to 1000 nM
//
compound: Cn1ccc2c(Cn3ccnc3)cc(-c3ccc4c(c3)CN(C3CCC(=O)NC3=O)C4=O)nc21 (centres unmarked)
recorded.measurement: > 10000 nM
//
compound: O=C1CCC(N2Cc3cc(-c4cc(CN5CC(F)C5)c5cc[nH]c5n4)ccc3C2=O)C(=O)N1 (centres unmarked)
recorded.measurement: > 10000 nM
